The compounds listed here are annotated with their pIC50.
System: cancer cell lines with wild-type p53 / mutated or deleted p53 (ATCC)
Test: Cell growth assay (WST-8), other cancer cell lines
Type: cell-based
Details: Homo sapiens, LNCaP, Table 19D; LNCaP cells; read-out: LNCaP IC50
pIC50: −log10 of the molar value.

Compound | Target or system | Readout name | Reported measurement
CN1CCC(CNC(=O)[C@@H]2N[C@H](CC(C)(C)C)[C@]3(C(=O)Nc4cc(Cl)ccc43)[C@H]2c2cccc(Cl)c2F)CC1 | cancer cell lines with wild-type p53 / mutated or deleted p53 (ATCC) | pIC50 | > 6.00
CC(C)(C)C[C@H]1N[C@@H](C(=O)N[C@@H]2CCN(CCF)C[C@@H]2F)[C@H](c2cccc(Cl)c2F)[C@@]12C(=O)Nc1cc(Cl)ccc12 | cancer cell lines with wild-type p53 / mutated or deleted p53 (ATCC) | pIC50 | > 5.52

// assay cancer cell lines with wild-type p53 / mutated or deleted p53 (ATCC), entry `CC(C)(C)C[C@H]1N[C@@H](C(=O)NCC[C@H](O)CO)[C@H](c2cccc(Cl)c2)[C@@]12C(=O)Nc1cc(F)ccc12` , pIC50 value = > 5.30

// assay cancer cell lines with wild-type p53 / mutated or deleted p53 (ATCC), entry CC(C)(C)C[C@H]1N[C@@H](C(=O)NCCC2CCC(O)C2)[C@H](c2cccc(Cl)c2)[C@@]12C(=O)Nc1cc(F)c(F)cc12 (some centres unmarked) , pIC50 value = > 5.30

// assay cancer cell lines with wild-type p53 / mutated or deleted p53 (ATCC), entry `CCCN1CCN(CCNC(=O)[C@@H]2N[C@H](CC(C)(C)C)[C@]3(C(=O)Nc4cc(Cl)c(F)cc43)[C@H]2c2cccc(Cl)c2)CC1` , pIC50 value = 5.82

// assay cancer cell lines with wild-type p53 / mutated or deleted p53 (ATCC), entry `CC(C)(C)C[C@H]1N[C@@H](C(=O)NCC[C@H](O)CO)[C@H](c2ccc(F)c(Cl)c2)[C@@]12C(=O)Nc1cc(F)ccc12` , pIC50 value = > 5.30

// assay cancer cell lines with wild-type p53 / mutated or deleted p53 (ATCC), entry `CC(C)(C)C[C@H]1N[C@@H](C(=O)NCC[C@H](O)CO)[C@H](c2cccc(F)c2)[C@@]12C(=O)Nc1cc(F)c(F)cc12` , pIC50 value = < 5.30

// assay cancer cell lines with wild-type p53 / mutated or deleted p53 (ATCC), entry `CN1[C@@H](C(=O)NCC[C@H](O)CO)[C@H](c2cccc(Cl)c2F)[C@@]2(C(=O)Nc3cc(F)c(F)cc32)[C@H]1CC(C)(C)C` , pIC50 value = < 6.00
